- Method summary: Human HepG2 cell viability assay in 384 well format
- Format: toxicity, cell-based
- Design: dose 125 nL, time 70.5 hour; concentration not given beside the values
- Condition context: HepG2 cells, read-out: Inhibition
The compounds listed here are annotated with their cytotoxicity at 70.5 h.
// return numeric value only (unit: %, not printed)

// below: answered compounds
CNC(=O)C(NC(=O)c1ccn(C)c(=O)c1)c1ccccc1 (stereo not given) = 33.4
Cc1nnc(SCCCNC(=O)c2ccc3c(c2)OCO3)s1 = -9.91
O=C(NCc1ccncc1)c1nc2c(o1)CN(C(=O)c1cccnc1)C2 = -0.144
Oc1cc(C2CCCCN2Cc2ccsc2)nc(-c2ccncc2)n1 (stereo not given) = -9.16

If you can, please state the reported cytotoxicity at 70.5 h value of O=C(c1ccncc1)N1CCc2ncnc(C3CC3)c2CC1 . -14.3
